- PROTOCOL: Plasma metabolites and pharmacokinetics after single intake of lemon or orange extract (UPLC-ESI-QTOF-MS, non-compartmental analysis)
- Format: in vivo, human
- ASSAY SETUP: human, oral, 3.1 g, after lemon extract, mean ± SD, read-out: AUC0-t
Under this convention, yes (1) denotes AUC(0-t) strictly below 0.7 µM·h and no (0) denotes AUC(0-t) at or above 0.7 µM·h.

Qu. I'd appreciate it if you could check whether O=C1CC(c2ccc(O)c(OC3OC(C(=O)O)C(O)C(O)C3O)c2)Oc2cc(O)cc(O)c21 (centres unmarked) [M2, Eriodictyol glucuronide-2] has AUC(0-t) smaller than 0.7 µM·h.
Ans. no (0)

Qu. Note, next up: O=C1CC(c2ccc(OC3OC(C(=O)O)C(O)C(O)C3O)c(O)c2)Oc2cc(O)cc(O)c21 (centres unmarked) [M4, Eriodictyol glucuronide-3]
Ans. no (0)

Qu. Note, next up: O=C1CC(c2ccc(OC3OC(C(=O)O)C(O)C(O)C3O)cc2)Oc2cc(O)cc(O)c21 (centres unmarked) [M5, Naringenin 4′-O-glucuronide]
Ans. yes (1)

Qu. Note, next up: O=C1CC(c2ccc(O)c(O)c2)Oc2cc(OC3OC(C(=O)O)C(O)C(O)C3O)cc(O)c21 (centres unmarked) [M1, Eriodictyol glucuronide-1]
Ans. yes (1)

Qu. Note, next up: COc1ccc(C2CC(=O)c3c(O)cc(O)cc3O2)cc1OS(=O)(=O)O (centres unmarked) [M14, Hesperetin 3′-O-sulfate]
Ans. no (0)

Qu. Note, next up: COc1ccc(C2CC(=O)c3c(O)cc(O)cc3O2)cc1OC1OC(C(=O)O)C(O)C(O)C1O (centres unmarked) [M8, Hesperetin 3′-O-glucuronide]
Ans. no (0)

Qu. Note, next up: O=C1CC(c2ccc(O)cc2)Oc2cc(OC3OC(C(=O)O)C(O)C(O)C3O)cc(O)c21 (centres unmarked) [M3, Naringenin 7-O-glucuronide]
Ans. yes (1)

Reference for the values: paper PMC8000041
